Test system: DU-145 prostate
ASSAY TEXT: NCI tumour cell line growth inhibition, 48 h
ASSAY ENDPOINT: TGI

Example compounds with recorded TGI:
CC(=N\O)/C(C)=N/O.CC(=N\O)/C(C)=N/O.[Pd]
> 10 µM
CCCCc1ccc(Nc2nc(N)c3[nH]cnc3n2)cc1
56.7 µM
COc1ccc(-n2cc(-c3ccc(Cl)cc3)[nH]c2=S)cc1Cl
> 100 µM
Nc1c(Cl)ncnc1NCC1(CO)CCC1
> 100 µM
Oc1ccc(Br)cc1CN1CCN(Cc2ccc(Cl)cc2)CC1
> 100 µM

For "O=C(NCCc1ccc(F)cc1)c1cc(/C=C/c2cc(O)ccc2O)ccc1O" , write its TGI.
33.2 µM

For "O=C(O)c1cc(/C=C/c2ccc(O)c(O)c2)ccc1O" , write its TGI.
> 100 µM

For "O=c1[nH]c(=O)n(COCCO)cc1-c1ccccc1" , write its TGI.
> 100 µM

For "Cc1cc([C@H](C#N)c2nc3ccccc3s2)nc(Cl)n1" , write its TGI.
91.7 µM

----------
TGI values, listed per item
Tested on: IGROV1 ovarian
ASSAY TEXT: NCI tumour cell line growth inhibition, 48 h

Example compounds with recorded TGI:
O=C(c1ccc(Cl)cc1)N(C(=S)N1CCN(c2ccccc2)CC1)C1CCCCC1
> 100 µM
CCOC(=O)C(C(N)=O)c1nc2cc([N+](=O)[O-])ccc2nc1/C=C(\O)c1ccc(C)cc1 (stereo unspecified)
43 µM
COc1ccc(/C=N\N2C(=O)Cc3ccccc32)cc1
> 100 µM
COc1ncn(C2C=C(CO)C(O)C2O)c(=O)n1 (stereo unspecified)
> 100 µM

For CC1=NN(C(=O)CC(=O)Nc2ccccc2)C(=O)C1N=Nc1ccc(S(N)(=O)=O)cc1 (stereo unspecified) , write its TGI.
> 100 µM

For CC(=O)OC1CC[C@@]2(C)C(CC(OC3OC(CO)C(O)C(O)C3O)[C@]3(C)C2CCC24CC23CC[C@H]4C(C)CC(O)[C@@H](O)C(C)(C)O)C1(C)C (stereo partly specified) , write its TGI.
22.1 µM

----------
log10 TGI values, listed per item
System: LOX IMVI melanoma
ASSAY TEXT: NCI tumour cell line growth inhibition, 48 h
Remember, log10 of TGI, in µM.

Example compounds with recorded log10 TGI:
COc1cc2c(cc1OC)[C@@H]1[C@H](C2=O)c2ccc([N+](=O)[O-])cc2C(=O)N1CCCBr
-0.09
C=CC[n+]1c(/C=C2\Sc3ccccc3N2C)sc(-c2ccccc2)c1-c1ccccc1
0.19
CCCCOP(=O)(OCCCC)C(NS(=O)(=O)c1ccccc1)(C(=O)OCC)C(F)(F)F (stereo not given)
1.99
CC([C@H]1CCC2C3CCC4C(=O)C(NC=O)=CC[C@]4(C)C3CC[C@@]21C)N(C)C (stereo not given in full)
0.60
O=C1CCCc2ccc3c(c21)CC1(Cc2cc4c(cc2C1)CCCC4)C3
1.45

# next compound below
For "CCCc1c(OC)c(O)c2c(=O)cc(OC)c3c4c(OC)cc(=O)c5c(O)c(OC)c(CCC)c(c1c23)c54" , write its log10 TGI.
0.69

----------
TGI values, listed per item
Test system: T-47D breast
ASSAY TEXT: NCI tumour cell line growth inhibition, 48 h
Where a SMILES comes first, the peptide text is derived from it. [ ]: non-standard residue; d: D form. The star is where a group is joined. ξ: configuration not given here. 4Abz = Nc1ccc(C(=O)O)cc1; ξL = CC(C)CC(N)C(=O)O; NHOH = ON*

Example compounds with recorded TGI:
NC(=O)NC1=NCCC(=O)N1CCc1c[nH]c2ccccc12
65.5 µM
OCCOCn1nc(-c2ccccc2)nc1-c1cnccn1
> 100 µM
CN(C)c1ccc(C(=C2C=CC(=[N+](C)C)C=C2)c2c(O)c(S(=O)(=O)[O-])cc3cc(S(=O)(=O)O)ccc23)cc1
> 100 µM
CC(C)CC(NC(=O)[C@@H]1CCCN1C(=O)CNC(=O)c1ccc(N)cc1)C(=O)N[C@H](C)C(=O)NO (some centres not stated) (H-[4Abz]GP[ξL][dA]-{NHOH})
> 100 µM

For CCOC(=O)C(C(N)=O)c1nc2cc([N+](=O)[O-])ccc2nc1/C=C(\O)c1ccc(C)cc1 (configuration not stated) , write its TGI.
> 100 µM

For "COc1cc(Oc2cnc3cc(N)cc(N)c3n2)cc(OC)c1OC" , write its TGI.
> 100 µM

For "Cc1cc(C)c2nc(Nc3nc(C)c(C)c(=O)[nH]3)nc(C)c2c1" , write its TGI.
8.42 µM

Source of measurements: PubChem BioAssay (NCI)
